normalized growth for assorted compounds
Assay: chemical genetic growth profiling, strain panel (AID 1159580);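 note: tested at 20 µM; growth read once vehicle control cultures reached saturation at 30 °C; 1 = growth at the plate median or of vehicle wells; lower values mean less growth of the strain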
Conditions: S. cerevisiae deletion strains, growth OD, locus YLR330W, strain CHS5, active compounds read low
About 2,000 (36%) of roughly 5,500 compounds were called active. About 18% were inconclusive and are not listed. Some of the results follow.
Lab note: record the figure alone, no unit after it.

Here are 2 compounds together with their reported answers.
Form: compound = Oc1c(I)cc(I)c2cccnc12 ; normalized growth = 0.0767

Form: compound = CC(C)N(C(=O)SCC(Cl)=C(Cl)Cl)C(C)C ; normalized growth = 1.01

New cases:
Form: compound = NCCNC(=O)c1ccc(Cl)cc1 ; normalized growth = 0.999

Form: compound = c1ccc2c(c1)cc1ccc3cccc4ccc2c1c34 ; normalized growth = 1.01
